Data origin: patent US12128028B2

# System: human Kv1.3 (Homo sapiens (Human))
# Sequence (P22001 whole entry): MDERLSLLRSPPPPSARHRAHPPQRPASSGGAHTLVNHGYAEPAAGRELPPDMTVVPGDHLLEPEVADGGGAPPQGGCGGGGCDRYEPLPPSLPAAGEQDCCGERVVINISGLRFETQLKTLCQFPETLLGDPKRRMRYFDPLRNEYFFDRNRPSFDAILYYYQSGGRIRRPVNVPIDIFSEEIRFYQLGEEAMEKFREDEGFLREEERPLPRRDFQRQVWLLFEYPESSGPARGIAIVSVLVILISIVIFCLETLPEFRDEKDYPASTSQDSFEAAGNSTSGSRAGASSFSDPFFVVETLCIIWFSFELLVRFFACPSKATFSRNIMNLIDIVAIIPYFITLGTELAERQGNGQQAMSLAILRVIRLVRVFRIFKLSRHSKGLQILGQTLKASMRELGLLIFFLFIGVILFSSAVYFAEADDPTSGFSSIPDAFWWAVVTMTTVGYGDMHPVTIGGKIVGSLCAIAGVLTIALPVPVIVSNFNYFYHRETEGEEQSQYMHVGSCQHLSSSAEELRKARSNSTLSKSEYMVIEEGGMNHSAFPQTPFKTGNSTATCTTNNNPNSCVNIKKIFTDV
# Protocol Description: Kv1.3 potency evaluation, automated patch clamp electrophysiology (QPatch HT) in CHO-Kv1.3 cells
# Condition Parameters: whole-cell QPatch HT, % inhibition of charge, step to +30 mV, four concentrations, N≥3 cells, read-out: hKv1.3 IC50
pIC50: −log10 of the molar value.
Classify as follows. Reported pIC50 greater than or equal to 7: y. Reported pIC50 below: n.

compound="CN(C(=O)[C@@H]1NC(C23CC(N(Cc4ccc(Cl)c(Cl)c4)S(=O)(=O)c4ccccc4)(C2)C3)=NC1(C)C)C1CC(F)(F)C1 (mixture of isomers) [Example 29]" category_label=y
compound="C[C@]1(C(=O)N2CCCCC2)CN=C(C23CC(N(Cc4ccc(C(F)(F)F)cc4)S(=O)(=O)c4ccc(F)cc4)(C2)C3)N1 (mixture of isomers) [Example 244]" category_label=n
compound="CC1(C)N=C(C23CC(N(Cc4ccc(C(F)(F)F)cc4)S(=O)(=O)c4ccc(F)cc4)(C2)C3)N[C@H]1C(=O)NCCC(F)(F)F (mixture of isomers) [Example 217]" category_label=n
compound="CC1(C)N=C(C23CC(N(Cc4ccc(F)c(Cl)c4)S(=O)(=O)c4ccccc4)(C2)C3)N[C@H]1C(=O)NCCC(F)(F)F (mixture of isomers) [Example 65]" category_label=y
compound="Cn1ccc(S(=O)(=O)N(Cc2ccc(Cl)cc2)C23CC(C4=NC(C)(C)[C@H](C(=O)NCCC(F)(F)F)N4)(C2)C3)n1 (mixture of isomers) [Example 241]" category_label=n
compound="CC1(C)N=C(C23CC(N(Cc4ccc(Cl)c(F)c4)S(=O)(=O)c4ccccc4)(C2)C3)N[C@H]1C(=O)N1C2CCC1CC(F)(F)C2 (mixture of isomers) [Example 77]" category_label=y
compound="CC1(C)N=C(C23CC(N(Cc4ccc(Cl)c(F)c4)S(=O)(=O)c4ccccc4)(C2)C3)N[C@H]1C(=O)NCCC1CC1 (mixture of isomers) [Example 20]" category_label=y
compound="CC1(NC(=O)C2NC(C34CC(N(Cc5ccc(C(F)(F)F)cc5)S(=O)(=O)c5ccc(F)cc5)(C3)C4)=NC2(C)C)CCC1 (stereo not shown) [Example 232]" category_label=n
compound="CN(C)C(=O)[C@]1(C)CN=C(C23CC(N(Cc4ccc(C(F)(F)F)cc4)S(=O)(=O)c4ccc(F)cc4)(C2)C3)N1 (mixture of isomers) [Example 230]" category_label=n
compound="CC1(C)N=C(C23CC(N(Cc4ccc(Cl)cc4)S(=O)(=O)c4ccccc4)(C2)C3)N[C@H]1C(=O)N1CCC(F)(F)CC1 (mixture of isomers) [Example 76]" category_label=y
compound="CC(F)(F)CNC(=O)[C@@H]1NC(C23CC(N(Cc4ccc(Cl)c(F)c4)S(=O)(=O)c4ccccc4)(C2)C3)=NC1(C)C (mixture of isomers) [Example 15]" category_label=y
compound="CC(C)(F)CNC(=O)[C@@H]1NC(C23CC(N(Cc4ccc(Cl)c(Cl)c4)S(=O)(=O)CCC(F)F)(C2)C3)=NC1(C)C (mixture of isomers) [Example 50]" category_label=y

---

# System: UniProt:P22001
# Protocol Description: Kv1.3 potency evaluation, automated patch clamp electrophysiology (QPatch HT) in CHO-Kv1.3 cells
# Condition Parameters: whole-cell QPatch HT, % inhibition of charge, step to +30 mV, four concentrations, N≥3 cells, read-out: hKv1.3 IC50
# Protocol: Biological Assays Kv1.3 Potency Evaluation Electrophysiology Recordings […] Currents were elicited using a single step voltage protocol. […] For each sweep of the voltage protocol membrane current and the passive properties of the individual cells were recorded by QPatch assay software (version 5.2). Cursors were placed to calculate the charge (integral of the current recorded during cursor interval) between 2-490 ms (0.4-99%) of the 500 ms step to +30 mV. […]
Threshold 100 nM. IC50 below it: yes (1). IC50 at it or above: no (0).

compound="CC(C)NC(=O)[C@@]1(C)CN=C(C23CC(N(Cc4ccccc4)S(=O)(=O)c4ccccc4)(C2)C3)N1 (mixture of isomers)" category_label="no (0)"
compound="CC(C)(C)CNC(=O)[C@@H]1NC(C23CC(N(Cc4ccc(Cl)c(Cl)c4)S(=O)(=O)CCC(F)F)(C2)C3)=NC1(C)C (mixture of isomers)" category_label="yes (1)"
compound="CCCCS(=O)(=O)N(Cc1ccc(Cl)cc1)C12CC(C3=NC(C)(C)[C@H](C(=O)NCCC(F)(F)F)N3)(C1)C2 (mixture of isomers)" category_label="yes (1)"
compound="CN(CC(F)(F)C(F)(F)F)C(=O)[C@@H]1NC(C23CC(N(Cc4ccc(Cl)c(Cl)c4)S(=O)(=O)c4ccccc4)(C2)C3)=NC1(C)C (mixture of isomers)" category_label="no (0)"
compound="CC1(C)N=C(C23CC(N(Cc4ccc(Cl)c(Cl)c4)S(=O)(=O)CCC(F)F)(C2)C3)N[C@H]1C(=O)NC1CC(C(F)F)C1 (mixture of isomers) [Example 204]" category_label="no (0)"
compound="CN(CCC(F)(F)F)C(=O)[C@@H]1NC(C23CC(N(Cc4ccc(Cl)c(Cl)c4)S(=O)(=O)CCC(C)(F)F)(C2)C3)=NC1(C)C (mixture of isomers)" category_label="yes (1)"
compound="CC1(C)N=C(C23CC(N(Cc4ccc(Cl)cc4)S(=O)(=O)c4ccc[nH]c4=O)(C2)C3)N[C@H]1C(=O)NCCC(F)(F)F (mixture of isomers)" category_label="no (0)"
compound="CC1(C)N=C(C23CC(N(Cc4ccc(Cl)c(F)c4)S(=O)(=O)c4ccccc4)(C2)C3)N[C@H]1C(=O)N1CC(F)(F)C1 (mixture of isomers)" category_label="yes (1)"
compound="CC1(C)N=C(C23CC(N(Cc4ccc(Cl)c(F)c4)S(=O)(=O)c4ccccc4)(C2)C3)N[C@@H]1C(=O)NCC1CC(F)(F)C1 (mixture of isomers)" category_label="yes (1)"
compound="C[C@]1(C(=O)NCCC(F)(F)F)CN=C(C23CC(N(Cc4ccc(C(F)(F)F)cc4)S(=O)(=O)c4ccc(F)cc4)(C2)C3)N1 (mixture of isomers)" category_label="no (0)"
